Entry source: ChEMBL document CHEMBL4680188

# Measured on: Melatonin receptor type 1B (Homo sapiens, UniProt P49286)
# Sequence (P49286 whole entry): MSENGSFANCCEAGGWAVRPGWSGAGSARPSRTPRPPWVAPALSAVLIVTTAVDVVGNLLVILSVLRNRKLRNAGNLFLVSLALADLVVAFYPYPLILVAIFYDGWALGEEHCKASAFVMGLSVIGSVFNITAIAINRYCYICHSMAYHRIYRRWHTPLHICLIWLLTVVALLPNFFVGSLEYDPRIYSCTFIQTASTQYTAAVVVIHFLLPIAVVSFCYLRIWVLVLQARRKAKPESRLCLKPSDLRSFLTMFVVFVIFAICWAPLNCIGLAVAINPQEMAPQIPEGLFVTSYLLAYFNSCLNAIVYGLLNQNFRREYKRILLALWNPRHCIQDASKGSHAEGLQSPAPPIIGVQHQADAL
Rule: Ki below 400 nM gives satisfied. Equal to or above 400 nM gives not satisfied.

CCC(=O)NCCc1ncnc2ccc(OC)cc12 satisfied
COc1ccc2ncnc(NCCNC(C)=O)c2c1 not satisfied
CCCC(=O)NCCc1ncnc2ccc(OC)cc12 satisfied
COc1ccc2ncnc(N3CCN(C(=O)C4CC4)CC3)c2c1 not satisfied
COc1ccc2ncnc(CCNC(C)=O)c2c1 satisfied
CCNC(=O)N1CCN(c2ncnc3ccc(OC)cc23)CC1 not satisfied

* * *

# Test protocol: Oral bioavailability in human
# Type: ADME, organism-based
# Settings: in vivo
Each entry gets no if its bioavailability stays under 40%, and yes if its bioavailability is 40% or above.

Compound	Category
CCCC(=O)NCCc1nncc2ccc(OC)cc12	no
COc1ccc2ncnc(CCNC(C)=O)c2c1	yes
COc1ccc2nc(-c3ccccc3)nc(CCNC(C)=O)c2c1	no
CCC(=O)NCCc1nncc2ccc(OC)cc12	yes
COc1ccc2cccc(CCNC(C)=O)c2c1 [AGOMELATINE]	no
CCCC(=O)NCCc1ncnc2ccc(OC)cc12	no

* * *

Assay read-out Ki; system under study: Melatonin receptor type 1A (Homo sapiens).
Sequence (P48039 whole entry): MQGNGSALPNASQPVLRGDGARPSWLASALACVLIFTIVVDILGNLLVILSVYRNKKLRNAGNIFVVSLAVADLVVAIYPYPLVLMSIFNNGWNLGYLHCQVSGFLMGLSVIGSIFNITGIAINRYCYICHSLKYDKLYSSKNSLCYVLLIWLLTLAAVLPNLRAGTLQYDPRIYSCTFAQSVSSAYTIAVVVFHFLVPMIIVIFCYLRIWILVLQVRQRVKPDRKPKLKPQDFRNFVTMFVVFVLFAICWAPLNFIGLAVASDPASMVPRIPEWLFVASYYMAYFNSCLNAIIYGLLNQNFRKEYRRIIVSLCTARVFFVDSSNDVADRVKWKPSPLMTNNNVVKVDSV
Measure: Ki

CCNC(=O)N1CCN(c2ncnc3ccc(OC)cc23)CC1 > 10 µM
COc1ccc2ncnc(NCCNC(C)=O)c2c1 > 10 µM
COc1ccc2ncnc(N3CCN(C(=O)C4CC4)CC3)c2c1 > 10 µM
